experiment-summary: Chromatographic hydrophobicity index, log D of the compound at pH 7.4
Type: physicochemical
protocol-conditions: buffer
value-type: chromatographic logD

Query: # input compound: CC(C)Oc1cc(N2CCNCC2)ccc1-c1c(C(N)=O)[nH]c2cc(F)c(Cl)cc12 ; wanted: its chromatographic logD
Reply: 3.1

Query: Query CC(C)Oc1cc(N2CCNCC2)ccc1-c1c(C(N)=O)[nH]c2cc(F)c(F)cc12 next
Reply: 2.8

Origin of values: ChEMBL document CHEMBL4665806
